meta.source: the supplement of paper PMC12783771

B1: library; numbered along this chain (parent)
chain: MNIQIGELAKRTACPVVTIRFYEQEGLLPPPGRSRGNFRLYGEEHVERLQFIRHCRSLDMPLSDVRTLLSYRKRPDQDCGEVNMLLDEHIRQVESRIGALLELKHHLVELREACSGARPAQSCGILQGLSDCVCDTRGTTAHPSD

Variants of: B1
Assay: sfGFP reporter fluorescence (15 h) (µM FITC); higher = stronger transcriptional activation
Details: library round: Round 1; ligand: 30 µM Zn
Returns the class for an entry based on its sfGFP reporter fluorescence. Class ranges: A: < 0.2; B: ≥ 0.2 and < 1; C: ≥ 1

Form field 'band' for N83S D135A
B

Which category fits this record: I90L G128T D135A
B

Band of C55V K104V ?
A

Note: place this variant into its band. Item: N83T D131A
A
